- Target Desc: EHMT2 (Homo sapiens)
- Construct: host or cells: MDA-MB-231
- Sequence (Q96KQ7 1-1210): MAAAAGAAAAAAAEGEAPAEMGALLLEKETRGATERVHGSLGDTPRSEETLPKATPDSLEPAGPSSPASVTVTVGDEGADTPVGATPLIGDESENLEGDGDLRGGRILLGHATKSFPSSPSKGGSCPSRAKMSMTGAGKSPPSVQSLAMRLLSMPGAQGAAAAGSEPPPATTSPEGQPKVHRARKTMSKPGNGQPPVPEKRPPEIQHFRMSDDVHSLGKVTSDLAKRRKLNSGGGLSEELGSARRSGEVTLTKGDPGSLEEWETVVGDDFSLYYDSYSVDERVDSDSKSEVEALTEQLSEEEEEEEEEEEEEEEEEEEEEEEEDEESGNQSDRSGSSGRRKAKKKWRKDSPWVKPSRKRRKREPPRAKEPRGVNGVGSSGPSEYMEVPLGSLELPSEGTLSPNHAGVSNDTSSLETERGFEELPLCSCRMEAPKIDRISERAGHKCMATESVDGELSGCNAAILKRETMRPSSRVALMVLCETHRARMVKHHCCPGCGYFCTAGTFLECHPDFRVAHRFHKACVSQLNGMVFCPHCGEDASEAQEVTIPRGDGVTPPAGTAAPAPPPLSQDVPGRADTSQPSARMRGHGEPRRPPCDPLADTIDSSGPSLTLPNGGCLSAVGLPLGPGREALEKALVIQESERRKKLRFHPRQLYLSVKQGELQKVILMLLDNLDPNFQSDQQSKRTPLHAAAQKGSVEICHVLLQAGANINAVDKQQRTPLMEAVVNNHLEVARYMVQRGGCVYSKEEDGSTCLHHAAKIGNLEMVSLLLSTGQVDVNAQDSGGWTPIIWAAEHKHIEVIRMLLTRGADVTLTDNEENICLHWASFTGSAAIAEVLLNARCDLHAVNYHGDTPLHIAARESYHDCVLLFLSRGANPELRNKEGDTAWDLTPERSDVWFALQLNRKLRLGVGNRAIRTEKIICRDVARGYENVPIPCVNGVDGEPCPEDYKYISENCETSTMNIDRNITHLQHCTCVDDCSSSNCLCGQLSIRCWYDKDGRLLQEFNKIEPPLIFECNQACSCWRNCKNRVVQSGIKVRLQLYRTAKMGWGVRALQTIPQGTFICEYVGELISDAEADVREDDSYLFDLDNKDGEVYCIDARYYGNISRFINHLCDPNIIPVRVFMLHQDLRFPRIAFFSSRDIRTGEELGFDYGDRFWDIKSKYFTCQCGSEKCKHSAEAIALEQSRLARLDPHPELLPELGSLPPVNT
- Assay Protocol: MDA-MB-231 H3K9me2 in-cell Western assay (EHMT2 ICW)
- Type: cell-based
- Run Parameters: H3K9me2 in-cell Western, MDA-MB-231 cells; read-out: EHMT2 ICW (IC50 μM)
Measured Quantity: IC50

Please review the entries below; each comes with its answer.
COc1ccc(Nc2nc(C)cc(NCC3CCOCC3)n2)cc1OCCCN1CCCC1 [Compound 590]
0.1 to 1 µM
COc1cnc(Nc2cc(NCC3CCOCC3)cc(C)n2)cc1OCCCN1CCCC1 [Compound 464]
1 to 10 µM
c1nc(NC2CCOCC2)ncc1OCC1CCN(C2CC2)C1 (stereo not shown) [Compound 557]
> 10 µM
CNc1cc(C2CCOCC2)c2cc(OC)c(OCCCN3CCCC3)cc2n1 [Compound 524]
< 0.1 µM
CNc1cc(C)nc(Nc2ccc(OC)c(OC[C@H]3C[C@H](N(C)C)C3)c2)n1 [Compound 470]
> 10 µM

Entry CN1CCC(COc2cnc(NCC3CCOCC3)nc2)C1 (stereo not shown) [Compound 553] needs its IC50 filled in; supply it.
> 10 µM

Return the recorded IC50 value; entry: CNc1cc(C)nc(Nc2ccc(OC)c(OCC3CN(C4CCCC4)C3)c2)n1 [Compound 577]
> 10 µM

Give the measured IC50 for COc1cnc(Nc2nc(C)cc3[nH]ncc23)cc1OCCCN1CCCC1 [Compound 460]
0.1 to 1 µM
